Test system: KM12 colon
EXPERIMENTAL PROTOCOL: NCI-60 one-dose screen, 48 h (100 = growth as untreated, 0 = no growth, -100 = all killed)
MEASUREMENT SETUP: 10 µM unless noted
Compounds without any hit were thinned out: in the full panel of roughly 83,000, 20% have a hit.
In this section we review reported growth values for a set of compounds.
Please reply with the bare figure in % and do not write the unit itself.

Reference set, count: 8
CC(=O)OC[Si](C)(C)c1ccccc1
110
Clc1ccc2c(c1)NC1(CCSc3ccccc31)n1nccc1-2 (stereo not given)
102
CCN1C(=S)N(CC)C2Nn3c(s/c(=C4\C(=O)N(C)c5ccccc54)c3=O)=NC21 (stereo not given)
27.4
Nc1nc(-c2cc3ccccc3o2)cc(=O)c(=O)[nH]1
105
COc1ncc(-c2ccc3ncnc(Nc4cccc(Cl)c4)c3c2)cc1N(S(C)(=O)=O)S(C)(=O)=O
81.1
COc1cc(C2C=C(C)N=C3SC=CN32)cc(OC)c1OC (stereo not given)
111
CN(C)c1ncc(-c2ccc(C(F)(F)F)cc2)c(NC2CCCCCC2)n1
54.4
CCCCCCCN(CCCCCCC)C(=N)c1ccc(OC)c2ccccc12
-84.3

Returns the measured growth for the input compound. Input: Cc1ccc2c(c1)ncn2-c1ncnc2c1CC(C)c1ccccc1N2C (stereo not given) 10.5

Consider next the compound CNC(=O)Cc1nc(-c2cccc(NS(=O)(=O)c3c(F)cccc3F)c2F)c(-c2ccnc(Nc3ccccc3)n2)s1 in the same way. 70.2

Consider next the compound NC(=O)NC(=O)/C=C/C(=O)OCCCl in the same way. 110

Consider next the compound CC(=O)Nc1ccc(S(=O)(=O)N2C(=O)CCC2C(=O)Nc2ccc(Br)cc2)cc1 (stereo not given) in the same way. 23.1

Consider next the compound CC(CCc1ccccc1)NC(=O)c1n[nH]c(=O)c2ccccc12 (stereo not given) in the same way. 109

Consider next the compound Nc1c(C(=O)Nc2cccc(C(F)(F)F)c2)sc2nc3c(cc12)CCCCCC3 in the same way. 30.1

Consider next the compound Cc1ccc(S(=O)(=O)OC2COCOC2C(OS(=O)(=O)c2ccc(C)cc2)C2OCOCC2OS(=O)(=O)c2ccc(C)cc2)cc1 (stereo not given) in the same way. 107

Consider next the compound C=CCOc1ccc(/C(O)=C2\C(=O)C(=O)N(c3nccs3)C2c2ccccc2F)cc1 (stereo not given) in the same way. 89.4
